meta.source: patent US20260028403A1

# kon listing for each entry below
target: huCD28 (human, UniProt P10747 19-152, limits assumed); assay: SPR, OAA format
Please respond with the number in M⁻¹ s⁻¹ and leave the unit unwritten.

The binder identified as v37851 (antibody, V domains shown, OAA format as v34891; also called huTN228 N1066A (VH) OAA) VH: QVQLQESGPGLVKPSETLSLTCAVSGFSLTSYGVHWIRQPPGKGLEWLGVIWPGGGTAFNSALMSRLTISEDTSKNQVSLKLSSVTAADTAVYYCARDRAYGNYLYAMDYWGQGTLVTVSS VL: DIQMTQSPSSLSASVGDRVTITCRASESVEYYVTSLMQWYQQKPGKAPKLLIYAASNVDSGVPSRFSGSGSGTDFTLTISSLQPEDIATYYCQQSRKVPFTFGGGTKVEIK registered its kon at 90900

The binder identified as v37876 (antibody, V domains shown, OAA format as v34891; also called huTN228 S1069A (VL) OAA) VH: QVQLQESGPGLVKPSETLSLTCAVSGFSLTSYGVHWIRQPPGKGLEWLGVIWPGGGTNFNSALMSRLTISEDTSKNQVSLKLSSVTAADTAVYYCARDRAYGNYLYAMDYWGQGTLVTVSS VL: DIQMTQSPSSLSASVGDRVTITCRASESVEYYVTSLMQWYQQKPGKAPKLLIYAASNVDAGVPSRFSGSGSGTDFTLTISSLQPEDIATYYCQQSRKVPFTFGGGTKVEIK registered its kon at 57800

The binder identified as v37847 (antibody, V domains shown, OAA format; also called huTN228 P1058A (VH) OAA) VH: QVQLQESGPGLVKPSETLSLTCAVSGFSLTSYGVHWIRQPPGKGLEWLGVIWAGGGTNFNSALMSRLTISEDTSKNQVSLKLSSVTAADTAVYYCARDRAYGNYLYAMDYWGQGTLVTVSS VL: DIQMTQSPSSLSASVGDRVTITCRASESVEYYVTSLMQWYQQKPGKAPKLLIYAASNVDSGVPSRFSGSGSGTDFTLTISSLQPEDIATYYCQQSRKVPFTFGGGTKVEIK registered its kon at 51100

The binder identified as v37855 (antibody, V domains shown, OAA format as v34891; also called huTN228 G1111A (VH) OAA) VH: QVQLQESGPGLVKPSETLSLTCAVSGFSLTSYGVHWIRQPPGKGLEWLGVIWPGGGTNFNSALMSRLTISEDTSKNQVSLKLSSVTAADTAVYYCARDRAYANYLYAMDYWGQGTLVTVSS VL: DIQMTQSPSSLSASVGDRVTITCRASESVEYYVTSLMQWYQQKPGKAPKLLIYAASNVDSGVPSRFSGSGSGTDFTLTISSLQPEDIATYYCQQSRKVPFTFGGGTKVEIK registered its kon at 46400

The binder identified as v37868 (antibody, V domains shown, OAA format as v34891; also called huTN228 Y1034A (VL) OAA) VH: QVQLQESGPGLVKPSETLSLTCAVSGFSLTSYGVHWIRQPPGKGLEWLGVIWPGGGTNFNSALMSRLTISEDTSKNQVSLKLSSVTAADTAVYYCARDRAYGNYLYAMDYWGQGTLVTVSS VL: DIQMTQSPSSLSASVGDRVTITCRASESVEYAVTSLMQWYQQKPGKAPKLLIYAASNVDSGVPSRFSGSGSGTDFTLTISSLQPEDIATYYCQQSRKVPFTFGGGTKVEIK registered its kon at 126000
